- measured.on: S. pyogenes SKKanGAS, kanamycin survival, BacTiterGlo, 6 h
- test.description: S. pyogenes SKKanGAS kanamycin growth inhibitors – SKKanGAS strain, luminescence, dose confirmation, streptokinase promoter inhibitor project, dose response (AID 1902);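 note: lower survival reflects blocked streptokinase promoter driving kanamycin resistance gene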
Active and inactive are the calls of the source.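 Rule for the calls: active = EC50 no more than a set limit of log units above the highest dose; inactive = the rest.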
A correct response names exactly one class from active, inactive

{"columns": ["molecule", "label"],
 "data": [
  ["Cc1ccc2cc(CN(Cc3cccs3)C(=O)c3ccco3)c3nnnn3c2c1C", "active"],
  ["CCOC(=O)c1cc(-c2ccc3c(c2)OCCO3)nc2c1c(C)nn2CCC#N", "active"],
  ["Cc1ccccc1-c1nc2c3ccccc3nc(=S)n2[nH]1", "active"],
  ["O=C(CC1CCCCC1)c1c(O)c2ccccc2oc1=O", "active"],
  ["Cc1ccc(Cn2c(Cc3ccccc3)nc3ccccc32)cc1", "active"]
]}

Called result for Cn1c(O)c(N=NC(=O)c2cc(-c3cccs3)nc3ccccc23)c2ccccc21 active

Query: recorded result category for COc1cc(C)c(C(=O)CC(=O)c2c(C)cc(OC)cc2C)c(C)c1 in this test active

Hi, sorry to bother you, what did the test record for Cc1ccc(CN(C(=O)c2ccco2)C2CCS(=O)(=O)C2)cc1 (centres undefined) ? inactive

Which outcome was entered for the molecule Cc1onc(-c2ccccc2)c1C(=O)NC(=S)NNC(=O)c1ccco1 in this test? active

Could you check what this test reported for Cc1ccccc1CN1CCCN(Cc2ccc(Cl)cc2)S1(=O)=O ? active

Dear all, I need the recorded test outcome for COc1cccc(CNCC(O)(c2ccc(Cl)cc2)c2ccc(Cl)cc2)c1 , thank you. active

###

Entries and their EC50
- measured.on: S. pyogenes SKKanGAS, kanamycin survival, BacTiterGlo, 6 h
- test.description: S. pyogenes SKKanGAS kanamycin growth inhibitors – SKKanGAS strain, luminescence, dose confirmation, streptokinase promoter inhibitor project, dose response (AID 1902);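 note: lower survival reflects blocked streptokinase promoter driving kanamycin resistance gene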

{"columns": ["molecule", "measured.on", "result"],
 "data": [
  ["O=C(c1ccc(O)cc1)c1ccc(C(=O)c2ccc(O)cc2)cc1", "S. pyogenes SKKanGAS, kanamycin survival, BacTiterGlo, 6 h", "5.07 µM"],
  ["Oc1ccc(/C=N/Nc2nc(-c3ccc(Cl)cc3)cc(C(F)(F)F)n2)cc1", "S. pyogenes SKKanGAS, kanamycin survival, BacTiterGlo, 6 h", "7.89 µM"]
]}

# lookup: EC50 of CCOC(=O)c1c(NC(=O)c2cccs2)sc(CC)c1-c1cccs1 13.1 µM

If you can, please state the reported EC50 value of Cc1nc2ccccc2n1/N=C/c1ccc([N+](=O)[O-])s1 . 2.39 µM

Which EC50 reading was recorded for the molecule Cc1cccc(NC(=O)C2SC(=Nc3c(C)cccc3C)C(C(=O)N3CCOCC3)=C2N)c1 (stereo unspecified) ? 2.44 µM

// EC50 lookup, key: c1ccc2sc(SCSc3nc4ccccc4s3)nc2c1 2.86 µM

###

- measured.on: S. pyogenes SKKanGAS, kanamycin survival, BacTiterGlo, 6 h
- test.description: S. pyogenes SKKanGAS kanamycin growth inhibitors – SKKanGAS strain, luminescence, dose confirmation, streptokinase promoter inhibitor project, dose response (AID 1902);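 note: lower survival reflects blocked streptokinase promoter driving kanamycin resistance gene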
Calls of active or inactive are those of the source.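 The calls were made as follows: active = EC50 no more than a set limit of log units above the highest dose; inactive = the rest.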
Result category, one only: yes (1) for active, no (0) for inactive

For orientation, consider the following solved cases.
{"columns": ["molecule", "label"],
 "data": [
  ["Cc1nn(-c2ccccc2)c(Cl)c1C1C(C#N)=C(N)OC2=C1C(=O)CC(C)(C)C2 (stereo unspecified)", "yes (1)"],
  ["CC1CCCCN1S(=O)(=O)c1ccc(C(=O)Nc2nnc(-c3cccs3)o2)cc1 (stereo unspecified)", "yes (1)"],
  ["Cc1cc(C)c2ccc(NN)nc2c1O", "yes (1)"],
  ["Cc1ccccc1N=Nc1ccc(O)c2ncccc12", "yes (1)"],
  ["COc1cc(Cl)cc(/C=C/c2ccc3cccc(O)c3n2)c1OC", "yes (1)"],
  ["CCCCCCCCCCCCn1ccc(=N)cc1", "yes (1)"]
]}

Returns: the outcome recorded for CCN(CC)c1nc(C(F)(F)F)nc2c1nnn2Cc1ccccc1 in this assay. yes (1)

Test call for this molecule, please: COc1cccc(/C=N/Nc2cc(C)nc(-c3ccccc3O)n2)c1O yes (1)

In this assay, the call recorded for O=C(Nc1cccc(Cl)c1)Nc1csc([N+](=O)[O-])c1 was what? yes (1)

Please let me know the test result on file for CN(C)c1ccc(O)c2c1CC1CC3[C@@H](N(C)C)C(=O)C(C(N)=O)=C(O)[C@]3(O)C(=O)C1=C2O (stereo partly specified) . yes (1)

Just curious, what result did O=S(=O)(Cc1nnnn1-c1ccccc1)c1ccc(F)cc1 get here? no (0)

I'd appreciate the recorded outcome for C#C[C@]1(O)CC[C@H]2[C@@H]3CCc4cc(OC5CCCC5)ccc4[C@H]3CC[C@@]21C from this test. yes (1)
